system: MS2 coat protein; experiment: apparent KD of MS2 coat protein; designed switch direction (-1 OFF switch, 1 ON switch): -1; higher = weaker reporter binding; settings: input ligand: FMN 200 uM
Decide by apparent KD of MS2 coat protein: equal to or exceeding 40 nM means True, less means False.

| seq | label |
| --- | --- |
| GAUCCACAUGAGGAUCACCCAUGUUAGGAUAUGACAACGACUCGCACUACGUUGUUGCUCAGAAGGAGCACCCA [Eternabot (Original) Solution 10] (Eterna round: R97, puzzle: Exclusion 1) | False |
| UCAGUUUUGCGAGGAUAUCGACCAUUCCUCUUUACAUGAGGAUCACCCAUGUGCUUAUCCUACAACGAGAAGGCGCUCAUACUC [JR_ExcNG2_Sub065] (Eterna round: R96, puzzle: Exclusion NG 2) | True |
| AUGUUACUCUGAGGAUAUUGUUUAUUCUUCUCACAUGAGGAUCACCCAUGUUUCCAUGUUAACCGCAAGAAGGCAGUAUUGAUU [JR_ExcNG2_Sub030] (Eterna round: R96, puzzle: Exclusion NG 2) | True |
| GGAAAUCAUGUAGGAUAUGCGUGGCGAAGCUAUGCAGAAGGACAUGAGGAUCACCCAUGUGCUUCCGUCUGCGUACAGACGGUA [Mat - Exclusion NG 1 - Mod of JL - D19] (Eterna round: R96, puzzle: Exclusion NG 1) | True |
| UUAACCAGAGGAUAUGCGAAUAAAUAAAACUUUUUUUUUUAACAUGAGGAUCACCCAUGUAGAAGGCUGCAUUU [Ex2 #30] (Eterna round: R97, puzzle: Exclusion 2) | False |
| GGUAGAGUGGUAGGAUAUCCGGCUGUUUCAGUCGGAGAAGGACCACAGUCACUGGGUCCAAAUAUGGGUGACCAUGUAUCUACC [pwkr exNG1 F6.6] (Eterna round: R96, puzzle: Exclusion NG 1) | True |
| ACUUCGUCAGGAUAUCGAGUGACCAAGUACACUGGCUUGGCUGAGAAGGGACAUGAGGAUCACCCAUGUGGGAG [Eternabot (L1) Solution 52] (Eterna round: R97, puzzle: Exclusion 4) | True |
| UUAUCCCAUGUGAGGAUAUUAUUUUAAAGAUGCAAUGAGAAGGUACAUGAGGAUCACCCAUGUCCGCGAAAUAU [Eternabot (L2) Solution 57] (Eterna round: R97, puzzle: Brourd's mod of Exclusion 4) | False |
| AGUCAGGCGGUAGGAUAUCCAAAUCGAGUGACCCUUUCAUAACAUGAGGAUCACCCAUGUCGGUGGGAGAAGGGCCGUACGGCG [JL ViennaUCT Atra mod 3] (Eterna round: R96, puzzle: Exclusion NG 2) | True |
| ACAUGAGGAUCACCCAUGUGCACGUAAUGGCUCAUGUAGAGUCAGGAUAUGCGUGGCGAACUCGCGCAGAAGGGACAAGACUGG [Deportation 20 - Jieux - Exclusion NG 3] (Eterna round: R96, puzzle: Exclusion NG 3) | False |
| AGUUGGCGAGGAUAUACAUGAGGAUCACCCAUGUGAGAGAUACUAGUGAGGUCGAUUAGGAGAAGGCGCUGACA [Mat X3R4 m20] (Eterna round: R97, puzzle: Exclusion 3) | True |
| CCCUGACAUGAGGAUCACCCAUGUUAGGAUAUAACAUUUGACACUACAGUGUGAAGUGUUAGAAGGGAUAUGGG [-27.9, -26.2 kcal, A 31%] (Eterna round: R97, puzzle: Exclusion 1) | False |
| UCUUUCAUUGUGAGGAUAUGCCCAAAUAAAAGCGGGCAGAAGGCACAUGAGGAUCACCCAUGUCCUGCGGUUUU [salish99_bmx4_r4_149] (Eterna round: R97, puzzle: Brourd's mod of Exclusion 4) | True |
| UUCGUGCAGCUUUGCUGUACGCGUACAUGAGGAUCACCCAUGUAGGAUAUGGUAGGCUUUGCUUACUAGAAGGAUAGUGUGAUC [JL EXNG3 1.30] (Eterna round: R96, puzzle: Exclusion NG 3) | True |
| ACCAGCAUACGGAGAUCCAACAUGAGGAUCACCCAUGUCUGGAAAGCUUUUUGCUUGUCUUAUCCUCCUCUGUGUGC [Design #2] (Eterna round: R97, puzzle: Sensor, turn-off variant 1) | False |
| CCGGAACAUGAGGAUCACCCAUGUCAGGAUAUGAAUAAAUCGUCGAUAGACGAUAAUCUCAGAAGGGACACCGG [Mat - Exclusion 1 - Eli Mod - D27] (Eterna round: R97, puzzle: Exclusion 1) | False |
| UUGUUACAUGAGGAUCACCCAUGUGAGGAUAUGAGUCAGUCACGGUGACGUGGCUGACUCAGAAGGCACAAAGG [Mat - Exclusion 1 - JL Mod - D40] (Eterna round: R97, puzzle: Exclusion 1) | True |
| AUAUUAGCAGGAUAUAUCCGGGAUAACAUGAGGAUCACCCAUGUGACCGCUUGAUAUCCUAUAGAAGGGCUUUAUA [Mod of ViennaUCT 29 - Jieux - Exclusion 5] (Eterna round: R97, puzzle: Exclusion 5) | False |

Origin of values: the supplement of paper PMC9170038
